assay: Metabolic stability in mouse liver microsomes; format: in vitro ADME; conditions: mouse, predicted, % of liver blood flow
Endpoint: In Vivo CLh (% LBF)

CC([c-]1cccc1)n1cc(Cn2cnc3ncnc(Cl)c32)nn1.[Fe+2].c1cc[cH-]c1 (stereo not drawn) [Compound 15b] :: 99
Clc1ncnc2c1ccn2Cc1cn(C[c-]2cccc2)nn1.[Fe+2].c1cc[cH-]c1 [Compound 11a] :: 98
Clc1ncnc2c1ncn2Cc1cn(C[c-]2cccc2)nn1.[Fe+2].c1cc[cH-]c1 [Compound 13a] :: 98
Clc1ncnc2c1ccn2Cc1cn(-[c-]2cccc2)nn1.[Fe+2].c1cc[cH-]c1 [Compound 11c] :: 99
Clc1ncnc2ncn(Cc3cn(C[c-]4cccc4)nn3)c12.[Fe+2].c1cc[cH-]c1 [Compound 15a] :: 97
CC([c-]1cccc1)n1cc(Cn2ccc3c(Cl)ncnc32)nn1.[Fe+2].c1cc[cH-]c1 (stereo not drawn) [Compound 11b] :: 100
